Assay text: logP by LC-MS on reversed-phase columns (C 18), method [b], acidic range pH 2.7
Assay type: physicochemical
Settings: pH 2.7, log p
// values below are reported chromatographic logP
Give the figure by itself; no unit, no explanation.

Param item = CC(C)CS(=O)(=O)c1cccc(Nc2ncc(Cl)c(NC3CC3)n2)c1 ; retrieve measured chromatographic logP.
2.64

Can you handle CCNc1nc(Nc2cccc(COC)c2)ncc1Cl next?
1.47

Can you handle COCC(C)Oc1ccc(Nc2ncc(Br)c(NC3CC3)n2)cc1 (stereo not drawn) next?
1.83

Can you handle CCS(=O)(=O)c1cccc(Nc2ncc(Br)c(NC3CCC3)n2)c1 next?
2.36

Can you handle CCCS(=O)(=O)c1cccc(Nc2ncc(Br)c(NC3CC3)n2)c1 next?
2.43

Can you handle COC(C)c1cccc(Nc2ncc(Cl)c(NCC(F)(F)F)n2)c1 (stereo not drawn) next?
2.82

Can you handle COC(C)(C)Cc1cccc(Nc2ncc(Cl)c(NC3CC3)n2)c1 next?
2.21

Can you handle CCSc1cccc(Nc2ncc(C(F)(F)F)c(NC3CC3)n2)c1 next?
3.95

Can you handle COCc1cccc(Nc2ncc(Cl)c(NCC(C)C)n2)c1 next?
2.08

Can you handle CCCS(=O)(=O)c1cccc(Nc2ncc(C(F)(F)F)c(NC3CC3C)n2)c1 (stereo not drawn) next?
3.43

Can you handle CCCCSc1cccc(Nc2ncc(Br)c(NC3CC3)n2)c1 next?
4

Can you handle CSC(C)c1cccc(Nc2ncc(C(F)(F)F)c(NC3CCC3)n2)c1 (stereo not drawn) next?
4.34

---

Assay text: logP by LC-MS on reversed-phase columns (C 18), method [b], acidic range pH 2.7
Format: physicochemical
Settings: pH 2.7
// values below are reported log p

{"Compound": "CCSC(C)c1cccc(Nc2ncc(Br)c(NC3CC(C)C3)n2)c1 (stereo not shown)", "log p": "3.85[b]"}

Consider the record given below.
Param item = COCC(C)Oc1ccc(Nc2ncc(C(F)(F)F)c(NC3CC3)n2)cc1 (stereo not shown) ; retrieve measured log p.
2.71[b]

---

// values below are reported log p
Assay text: logP by LC-MS on reversed-phase columns (C 18), method [b], acidic range pH 2.7
Format: physicochemical
Settings: pH 2.7

Look over these answered cases.
{"Compound": "COCCOc1cccc(Nc2ncc(Cl)c(NC3CC3C(F)(F)F)n2)c1 (centres unmarked)", "Result": "2.66[b]"}
{"Compound": "COCc1cc(COC)cc(Nc2ncc(Cl)c(NC3CCC3)n2)c1", "Result": "2.06[b]"}
{"Compound": "COCCOCCOc1ccc(Nc2ncc(C(F)(F)F)c(NC3CC3)n2)cc1C(F)(F)F", "Result": "3.52[b]"}
{"Compound": "CC[S+]([O-])C(C)c1cccc(Nc2ncc(C(F)(F)F)c(NCC3CC3)n2)c1 (centres unmarked)", "Result": "2.3[b]"}

Param item = COCCOC(c1cccc(Nc2ncc(C(F)(F)F)c(NC3CC3)n2)c1)C(F)(F)F (centres unmarked) ; retrieve measured log p.
3.72[b]

Can you handle COCc1cccc(Nc2ncc(Cl)c(NC3CC3C(F)(F)F)n2)c1 (centres unmarked) next?
2.64[b]

Can you handle COCCOCCOc1ccc(Nc2ncc(Br)c(NC3CC3)n2)cc1 next?
1.69[b]

Can you handle CCOCCOCc1cccc(Nc2ncc(C(F)(F)F)c(NC3CC3)n2)c1 next?
2.73[b]

Can you handle COCCOC(c1cccc(Nc2ncc(Br)c(NC3CC3)n2)c1)C(F)(F)F (centres unmarked) next?
2.85[b]

Can you handle COCCOc1ccc(Nc2ncc(C(F)(F)F)c(NC3CC3)n2)cc1F next?
2.89[b]

Can you handle COCc1cccc(Nc2ncc(Cl)c(N(C)CCCN3CCCCCC3=O)n2)c1 next?
1.91[b]

Can you handle COCC(C)Oc1ccc(Nc2ncc(C(F)(F)F)c(NC3CC3)n2)cc1Cl (centres unmarked) next?
3.7[b]

Can you handle CC[S+]([O-])C(C)c1cccc(Nc2ncc(C(F)(F)F)c(NC3CC3)n2)c1 (centres unmarked) next?
2.2[b]

---

// values below are reported log p
Assay text: logP by LC-MS on reversed-phase columns (C 18), method [b], acidic range pH 2.7
Type: physicochemical
Settings: pH 2.7

{"Compound": "COCC(C)Oc1ccc(Nc2ncc(C(F)(F)F)c(NC3CC3)n2)cc1C(F)(F)F (stereo not shown) [Example 80]", "Parameter": "log p", "Result": "4.05[b]"}
{"Compound": "CCSC(C)c1cccc(Nc2ncc(Cl)c(NC3CCC3)n2)c1 (stereo not shown) [Example 11]", "Parameter": "log p", "Result": "3.25[b]"}
{"Compound": "CC[S+]([O-])C(C)c1cccc(Nc2ncc(C(F)(F)F)c(NC3CCCC3)n2)c1 (stereo not shown) [Example 42]", "Parameter": "log p", "Result": "2.87[b]"}

Param item = CCOCCOCCSc1cccc(Nc2ncc(Cl)c(NC3CC3)n2)c1 [Example 180] ; retrieve measured log p.
2.58[b]

Can you handle CCS(=O)(=O)c1ccc(Nc2ncc(C(F)(F)F)c(NC3CC3)n2)cc1 [Example 55] next?
2.66[b]

Can you handle COCC(C)Oc1ccc(Nc2ncc(Cl)c(NC3CC3C(F)(F)F)n2)cc1 (stereo not shown) [Example 221] next?
2.48[b]

Can you handle CCCC[S+]([O-])c1cccc(Nc2ncc(Br)c(NC3CCC3)n2)c1 (stereo not shown) [Example 152] next?
2.67[b]
